# credit: the supplement of paper PMC3545927

- TARGET OF ASSAY: furin, P09958;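 note: purified furin at 1:10 enzyme:substrate in 50 mM HEPES pH 7.5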
- Sequence (P09958 whole entry): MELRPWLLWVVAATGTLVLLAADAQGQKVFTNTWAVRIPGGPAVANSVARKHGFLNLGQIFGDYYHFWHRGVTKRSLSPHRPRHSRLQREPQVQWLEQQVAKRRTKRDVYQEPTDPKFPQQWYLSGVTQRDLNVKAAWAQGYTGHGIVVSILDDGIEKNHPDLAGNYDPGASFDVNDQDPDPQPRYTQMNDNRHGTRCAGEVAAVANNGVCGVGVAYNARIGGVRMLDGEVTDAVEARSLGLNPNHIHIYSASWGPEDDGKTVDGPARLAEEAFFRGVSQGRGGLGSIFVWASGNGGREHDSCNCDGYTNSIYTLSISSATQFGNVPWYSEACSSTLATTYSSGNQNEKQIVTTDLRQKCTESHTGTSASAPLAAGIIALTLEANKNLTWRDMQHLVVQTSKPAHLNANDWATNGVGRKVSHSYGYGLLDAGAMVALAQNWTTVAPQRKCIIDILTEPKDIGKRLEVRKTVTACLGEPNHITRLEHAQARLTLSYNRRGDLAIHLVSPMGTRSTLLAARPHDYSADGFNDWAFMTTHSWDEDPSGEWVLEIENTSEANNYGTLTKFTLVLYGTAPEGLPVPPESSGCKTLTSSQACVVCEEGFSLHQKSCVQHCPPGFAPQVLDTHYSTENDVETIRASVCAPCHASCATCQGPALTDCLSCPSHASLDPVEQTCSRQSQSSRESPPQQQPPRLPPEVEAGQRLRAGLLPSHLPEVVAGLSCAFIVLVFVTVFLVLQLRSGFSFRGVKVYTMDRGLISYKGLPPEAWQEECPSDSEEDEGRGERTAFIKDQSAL
- ASSAY NOTES: furin cleavage Z-score vs untreated control; higher = more cleavage, active = 3.5 or more, inactive = 1 or less, 8 variable residues between constant flanks
- ASSAY CONTEXT: 30 min
The other results are listed elsewhere or left out. How many sequences the whole screen found active is unknown.
So basically: furin cleavage Z-score at -0.3 or higher? That is yes. Lower than -0.3? That is no.

>>> df
                       seq_text  category_label
0  CARPARVALPAGNASASA [FS-2053]             yes
1    CASLTPCTCGAGNASASA [HC720]              no
2  CARPARGAGPAGNASASA [FS-3015]             yes

Item CALYGNEGCGAGNASASA [HC203] with furin cleavage Z-score of -0.3 or above?
yes

Further, for CARLARSFDCAGNASASA [FS-2568] ?
yes

Can you handle CARLRRSSSPAGNASASA [FS-2353] next?
yes

Same for CARDGRKVTVAGNASASA [FS-2902]
no

Consider next the sequence CAWAGWLLSPAGNASASA [HC207] in the same way.
yes

Try this sequence too: CAAVLTSMLTAGNASASA [HC1245]
yes

Same question for CAYSTYGKFLAGNASASA [HC807] please.
yes

Entry CAVVCCSDSYAGNASASA [HC2051] please
yes

Again, but for CAAEAAGRRLAGNASASA [HC1252]
no
